- assayed target: SARS-CoV Spike trimer (Table A) (SARS-CoV), P59594
- assay remarks: ELISA, purified IgG
- condition parameters: remark: other sources report otherwise
Measured ELISA OD 450 nm accompanies every entry in the list below.
quantity kind: ELISA OD 450 nm (OD 450 nm)

{"columns": ["binder", "numeric readout"],
 "data": [
  ["COV2-2391 (antibody, V domains shown) VH: QVQLVQSGAEVKKPGASVKVSCKASGYTFGSFDINWVRQATGQGLEWMGRMNSNSGNTAYAQKFQGRVTMTRDTSTNTAYMELSSLRSEDTAMYYCARMRSGWPTHGRPDDFWGRGTLVTVSS VL: QSVLTQAPSASGTPGQRVTISCSGSNSNIGSYTINWYQQLPGTAPKLLIYGNDQRTSGVPDRFSGSKFGTSASLAISGLQSEDENNYYCAVWDDSLNGLVFGGGTKLTVL", 0.1],
  ["COV2-2165 (antibody, V domains shown) VH: EVQLVESGGGLVQPGGSLRLSCAASGLTVRSNYMTWVRQTPGKGLEWVSVIYSGGSTFYADSVKGRFTISRDNSKNTVYLQMNSLRAEDTAVYYCARDLVTYGLDVWGQGTTVTVSS VL: DIQLTQSPSFLSASVGDRVTITCRASQGISNYLAWYQQKPGTAPNLLIYAASTLQSGVPSRFSGSGSGTEFTLTISSLQPEDFATYYCQLLNSHPLTFGQGTRLEIK", 0.17],
  ["COV2-2096 (antibody, V domains shown) VH: QVQLVQSGAEVKKPGASVKVSCKASGYTFGSFDINWVRQATGQGLEWMGRMNSNSGNTAYAQKFQGRVTMTRDTSTNTAYMELSSLRSEDTAMYYCARMRSGWPTHGRPDDFWGRGTLVTVSS VL: QSVLTQAPSASGTPGQRVTISCSGSNSNIGSYTINWYQQLPGTAPKLLIYGNDQRTSGVPDRFSGSKFGTSASLAISGLQSEDENNYYCAVWDDSLNGLVFGGGTKLTVL", 0.11],
  ["COV2-2952 (antibody, V domains shown) VH: EVQLVESGGGLVQPGGSLRLSCAASGLTVRSNYMTWVRQTPGKGLEWVSVIYSGGSTFYADSVKGRFTISRDNSKNTVYLQMNSLRAEDTAVYYCARDLVTYGLDVWGQGTTVTVSS VL: DIQLTQSPSFLSASVGDRVTITCRASQGISNYLAWYQQKPGTAPNLLIYAASTLQSGVPSRFSGSGSGTEFTLTISSLQPEDFATYYCQLLNSHPLTFGQGTRLEIK", 0.15]
]}
